- assayed-target: UniProtKB Q9P0U3
- Sequence (Q9P0U3 whole entry, the tested form may be a part): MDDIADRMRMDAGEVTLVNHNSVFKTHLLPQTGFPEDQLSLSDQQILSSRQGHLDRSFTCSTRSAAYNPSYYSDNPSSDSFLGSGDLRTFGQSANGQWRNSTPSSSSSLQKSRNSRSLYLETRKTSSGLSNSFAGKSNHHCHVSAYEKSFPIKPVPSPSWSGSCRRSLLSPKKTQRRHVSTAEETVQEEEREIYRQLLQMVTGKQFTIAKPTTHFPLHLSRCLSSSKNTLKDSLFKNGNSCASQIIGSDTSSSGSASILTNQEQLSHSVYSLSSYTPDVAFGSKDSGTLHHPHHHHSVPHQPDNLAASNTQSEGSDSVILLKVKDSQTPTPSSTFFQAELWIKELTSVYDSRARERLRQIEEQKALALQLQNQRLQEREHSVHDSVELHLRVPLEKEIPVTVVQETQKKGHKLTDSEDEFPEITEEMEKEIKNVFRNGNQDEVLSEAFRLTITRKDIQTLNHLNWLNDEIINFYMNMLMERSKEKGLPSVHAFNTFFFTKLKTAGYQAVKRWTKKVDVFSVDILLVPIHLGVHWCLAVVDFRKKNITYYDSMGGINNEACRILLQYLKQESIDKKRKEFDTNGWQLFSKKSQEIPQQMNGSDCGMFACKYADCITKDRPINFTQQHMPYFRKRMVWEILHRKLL
- measurement-notes: Dose response confirmation of small molecule inhibitors of the catalytic domain of the SUMO protease, SENP1 in a FRET assay.
- Format: functional
- measurement-context: read-out: IC50_Mean
Calls of active or inactive are those of the source.
Respond using exactly one of the listed classes: Yes for active, No for inactive

Study these solved cases before continuing.
COc1ccc(Nc2nnc(SCc3cc(=O)n4ccsc4n3)s2)cc1
Yes
O=C1C=C(c2cccc(Cl)c2O)C[C@@H](c2ccc(F)cc2)C1
Yes
COc1ccccc1-n1cc(C(=O)c2cc(Cl)ccc2O)cc(C#N)c1=O
No

Now for another entry.
Each compound tested received a call. Report the one for Cc1sc(-c2ccccn2)nc1OC(=O)c1ccc(F)cc1F .
Yes

---

- assayed-target: DNA repair protein RAD52 homolog (Homo sapiens, UniProt P43351)
- Sequence (P43351 whole entry): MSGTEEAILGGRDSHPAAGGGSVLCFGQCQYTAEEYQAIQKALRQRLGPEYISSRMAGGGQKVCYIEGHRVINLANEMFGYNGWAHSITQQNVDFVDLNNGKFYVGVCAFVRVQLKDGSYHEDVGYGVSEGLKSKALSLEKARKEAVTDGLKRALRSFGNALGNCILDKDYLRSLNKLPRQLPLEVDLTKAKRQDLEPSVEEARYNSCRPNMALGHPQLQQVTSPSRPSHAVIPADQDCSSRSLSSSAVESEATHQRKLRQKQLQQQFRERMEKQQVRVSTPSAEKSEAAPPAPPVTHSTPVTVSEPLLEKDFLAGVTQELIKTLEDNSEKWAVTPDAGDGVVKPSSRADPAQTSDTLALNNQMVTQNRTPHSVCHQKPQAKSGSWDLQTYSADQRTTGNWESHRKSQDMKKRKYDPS
- Format: functional, biochemical
Activity calls are given as the source filed them.
Entries annotated with measured AC50

Use the examples below as a reference point.
CCN1CCCC1CNC(=O)c1ccc2c(c1)NC(=O)/C(=C\c1ccc(OC)c(OC)c1)S2 (stereo not given)
3.24 µM (active)
CC(C)(C)CC(C)(C)c1ccc(OCCOCC[N+](C)(C)Cc2ccccc2)cc1 [BENZETHONIUM CHLORIDE]
31.3 µM (active)
CN(C)CCNC(=O)c1ccc(-c2cn3c(-c4ccc(Oc5ccccc5)cc4)cnc3cn2)cc1
5.06 µM (active)
O=C(NCCCCCCCN1CCCCCCC1)C(C1CCCCC1)C1CCCCC1
8.88 µM (active)

Looking up CCOc1cccc2sc(N(CCCN(C)C)C(=O)c3ccc(C(=O)c4ccccc4)cc3)nc12 , I see its AC50 listed as 17.3 µM (active)

---

Let's look at some molecules and their measured EC50.
- assayed-target: Heat shock factor protein 1 (Mus musculus, UniProt P38532)
- Sequence (P38532 whole entry): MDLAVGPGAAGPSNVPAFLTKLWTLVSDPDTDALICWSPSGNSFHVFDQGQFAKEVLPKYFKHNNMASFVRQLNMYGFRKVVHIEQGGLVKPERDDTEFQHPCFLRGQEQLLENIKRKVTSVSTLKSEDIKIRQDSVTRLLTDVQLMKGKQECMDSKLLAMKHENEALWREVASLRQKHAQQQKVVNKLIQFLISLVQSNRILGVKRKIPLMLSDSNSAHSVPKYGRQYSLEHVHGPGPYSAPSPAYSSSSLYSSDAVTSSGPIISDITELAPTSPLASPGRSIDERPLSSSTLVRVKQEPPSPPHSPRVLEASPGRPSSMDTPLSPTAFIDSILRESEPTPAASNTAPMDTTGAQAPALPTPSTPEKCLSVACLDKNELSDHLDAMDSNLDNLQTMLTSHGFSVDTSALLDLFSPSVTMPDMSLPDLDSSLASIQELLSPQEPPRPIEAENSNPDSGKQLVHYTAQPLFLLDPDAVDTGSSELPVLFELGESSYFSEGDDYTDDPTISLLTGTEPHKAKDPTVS
- measurement-notes: enhancement of HSF1-driven luciferase signal – cell-based, NIH3T3, luminescence, dose retest, confirmation (AID 435004);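 further: stress induced by proteasome inhibitor MG132 added 30 min after compound; luciferase reporter driven by HSF1 response element in NIH3T3 cells; actives raise luminescence as potentiators of the MG132 stress response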
- Format: functional
Calls of active or inactive are those of the source.

CCOc1cccc(/C=C/c2ccc3cccc(O)c3n2)c1OC
27.7 µM (active)
O=C(CBr)c1ccc([N+](=O)[O-])c(CS(=O)(=O)c2ccc(Cl)cc2)c1
31.9 µM (active)
COC(=O)c1cc(OC)c(OC)cc1NC(=S)NC(=O)c1ccco1
28.2 µM (active)
CC1(C)CC(=O)C(=CNc2cc(C(=O)c3ccccc3)ccc2/N=C/C2=C(O)CC(C)(C)CC2=O)C(=O)C1
56.1 µM (active)

Could you now look at the following molecule, please?
Sure, the documented EC50 for CC(C)(C)c1ccc(C(=O)CC(Sc2ccc(Cl)cc2)C(=O)O)cc1 (stereo not given) is 137 µM (active)

---

Observed AC50 for Cytochrome P450 1A2 (Homo sapiens), reported per entry below.

Completed entries (count: 5):
COc1ccc(N(C)S(=O)(=O)c2ccc3c(c2)CCC(=O)N3)cc1
0.01 µM (inconclusive)
CCOC(=O)N1CCN(C(=O)CSCc2nc(-c3ccccc3F)oc2C)CC1
12.6 µM (inconclusive)
CC(C)c1cccc2nc3c(c([Si](C)(C)C(C)(C)C)c12)Cn1c-3cccc1=O
25.1 µM (inconclusive)
COc1cc(OC)cc(C(=O)Nn2cc(C(=O)N3CCN(C)CC3)c3ccccc3c2=O)c1
10 µM (inconclusive)
N#Cc1ccc(CN2CC[C@@]3(CCCNC3)C2)cc1
25.1 µM (inconclusive)

The molecule identified as CCCN(CCC)CCCNC(=O)C[S+]([O-])Cc1nc(-c2ccc(OC)c(OC)c2)oc1C (stereo not given) registered its AC50 at 3.16 µM (inconclusive)

So for COc1ccc(C)cc1NC(=O)c1cc2cc3ccc(C)cc3nc2o1 , the logged AC50 turned out to be 1.26 µM (inconclusive)

# AC50 of O=[N+]([O-])c1cccc(/C(=N/N=C/c2ccccc2Br)C23CN4CN(CN(C4)C2)C3)c1 = 22.4 µM (inconclusive)

# molecule CC(C)[C@H](Sc1nc(N)nc2[nH]cnc12)C(=O)O ; its AC50 = 0.316 µM (inconclusive)

So, CCN1CCc2nc(NC(=O)CC(c3ccccc3)c3ccccc3)sc2C1 ? Its AC50 was 15.8 µM (inconclusive)

---

Reported IC50 values for the following compounds.
- assayed-target: Orexin receptor type 2 (Homo sapiens)
- Sequence (O43614 whole entry): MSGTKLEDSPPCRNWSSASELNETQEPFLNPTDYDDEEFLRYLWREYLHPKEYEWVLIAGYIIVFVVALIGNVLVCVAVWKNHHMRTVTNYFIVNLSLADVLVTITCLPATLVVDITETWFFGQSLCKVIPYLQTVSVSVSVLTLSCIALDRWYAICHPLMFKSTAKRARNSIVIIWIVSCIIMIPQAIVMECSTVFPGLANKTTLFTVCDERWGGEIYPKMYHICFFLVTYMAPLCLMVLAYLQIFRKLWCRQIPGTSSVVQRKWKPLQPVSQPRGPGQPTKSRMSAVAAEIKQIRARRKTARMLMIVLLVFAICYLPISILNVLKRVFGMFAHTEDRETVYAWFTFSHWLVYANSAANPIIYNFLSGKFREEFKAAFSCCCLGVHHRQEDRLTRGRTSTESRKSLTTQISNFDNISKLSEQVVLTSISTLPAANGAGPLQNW
- measurement-notes: Counterscreen assay for antagonists of the orexin 1 receptor (OX1R; HCRTR1): Fluorescence-based cell-based dose response assay for antagonists of the orexin 2 receptor (OX2R; HCRTR2), run by assay provider.
- Type: functional
The source made the active and inactive calls.

Solved entries:
Cc1noc(C)c1COC(=O)c1ccc2c(c1)S(=O)(=O)c1ccccc1C2=O
> 88.8 µM (inactive)
Nn1c(-c2cccs2)nc2sc3c(c2c1=O)CCCC3
31.2 µM (inactive)
Cc1cc(C)n2nc(-c3cccc(Br)c3)cc2n1
> 88.8 µM (inactive)

Recorded IC50 (compound CC(=C/c1ccccc1)/C=C1/SC(N2CCOCC2)=NC1=O ): > 88.8 µM (inactive)

---

- assayed-target: Cytochrome P450 3A4 (Homo sapiens, UniProt P08684);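 further: CYP3A4 tested as one member of a cytochrome P450 panel screen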
- Sequence (P08684 whole entry): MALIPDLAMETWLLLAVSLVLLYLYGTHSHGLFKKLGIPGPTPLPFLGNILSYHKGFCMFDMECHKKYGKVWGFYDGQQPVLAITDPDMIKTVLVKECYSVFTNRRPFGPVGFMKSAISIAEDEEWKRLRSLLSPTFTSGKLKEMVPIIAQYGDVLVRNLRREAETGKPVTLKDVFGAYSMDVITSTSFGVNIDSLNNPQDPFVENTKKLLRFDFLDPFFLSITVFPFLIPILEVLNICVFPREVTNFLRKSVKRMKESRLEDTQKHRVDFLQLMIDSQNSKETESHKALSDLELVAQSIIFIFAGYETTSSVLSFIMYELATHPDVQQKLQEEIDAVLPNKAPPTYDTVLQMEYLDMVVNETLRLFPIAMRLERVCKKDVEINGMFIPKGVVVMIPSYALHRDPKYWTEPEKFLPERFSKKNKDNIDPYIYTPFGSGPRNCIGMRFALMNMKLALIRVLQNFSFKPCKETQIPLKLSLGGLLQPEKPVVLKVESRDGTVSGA
measurement-name: AC50

COc1ccc(N(C)S(=O)(=O)c2ccc3c(c2)CCC(=O)N3)cc1
3.55 µM (inconclusive)
COc1ccccc1CNc1cc(-c2cccc(C#N)c2)ncn1
25.1 µM (inconclusive)
CCOc1ccccc1Oc1c(C)oc2cc(OC(=O)c3ccco3)ccc2c1=O
20 µM (inconclusive)
O=C(c1ccc(Oc2ccc(C(F)(F)F)cn2)cc1)N1CCN(c2ccccc2)CC1
14.1 µM (inconclusive)
Cc1ccc(OC[C@H](O)[C@H](C)NC(C)C)c2c1CCC2
31.6 µM (inconclusive)
CC(C)(C)C(=O)Nc1ccnc(-c2cccnc2)n1
2.51 µM (inconclusive)
O=[N+]([O-])c1cccc(/C(=N/N=C/c2ccccc2Br)C23CN4CN(CN(C4)C2)C3)c1
31.6 µM (inconclusive)
CC1(C)O[C@@H]2C[C@H]3[C@H]4C[C@H](F)C5=CC(=O)C=C[C@@]5(C)[C@@H]4[C@H](O)C[C@]3(C)[C@]2(C(=O)CO)O1
12.6 µM (inconclusive)

AC50 for O=c1c(-c2cc(F)cc(F)c2)nc2cncnc2n1C1CC1 is 7.94 µM (inconclusive)

AC50 recorded for this compound, CCOC(=O)N1CCN(C(=O)CNS(=O)(=O)c2cccs2)CC1 , is 14.1 µM (inconclusive)

Reported AC50 of O=C(Nc1cccc(-c2cn3cccnc3n2)c1)c1ccco1 : 25.1 µM (inconclusive)

---

- assayed-target: Orexin/Hypocretin receptor type 1 (Homo sapiens)
- Sequence (O43613 whole entry): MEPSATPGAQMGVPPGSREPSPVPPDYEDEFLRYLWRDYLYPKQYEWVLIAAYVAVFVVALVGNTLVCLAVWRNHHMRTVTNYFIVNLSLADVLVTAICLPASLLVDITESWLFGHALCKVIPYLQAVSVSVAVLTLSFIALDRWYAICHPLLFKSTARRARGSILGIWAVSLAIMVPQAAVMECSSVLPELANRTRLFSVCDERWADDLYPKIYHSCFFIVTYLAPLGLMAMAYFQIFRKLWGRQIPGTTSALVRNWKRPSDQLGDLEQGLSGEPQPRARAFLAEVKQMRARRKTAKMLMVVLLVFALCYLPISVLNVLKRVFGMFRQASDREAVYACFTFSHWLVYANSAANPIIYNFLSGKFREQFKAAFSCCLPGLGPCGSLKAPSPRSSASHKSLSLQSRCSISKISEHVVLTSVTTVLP
- measurement-notes: Fluorescence-based cell-based high throughput dose response assay for antagonists of the orexin 1 receptor (OX1R; HCRTR1). [Related pubchem assays (depositor defined):AID434989, AID435008, AID463079, AID485270, AID492963, AID492964, AID492965, AID493232, AID504717, AID504718]
- Type: functional
Active and inactive are the calls of the source.
One label from this list, please: YES for active, NO for inactive

Here are 3 compounds together with their reported answers.
Cc1cc(C)n2nc(-c3cccc(Br)c3)cc2n1
YES
Cc1noc(C)c1COC(=O)c1ccc2c(c1)S(=O)(=O)c1ccccc1C2=O
YES
Nn1c(-c2cccs2)nc2sc3c(c2c1=O)CCCC3
NO

Okay, now this compound:
In this assay, the call recorded for CC(=C/c1ccccc1)/C=C1/SC(N2CCOCC2)=NC1=O was what?
YES
